target-desc: hTEM8-his antigen (hTEM8 containing 6 His tags) (human) (UniProt Q9H6X2)
Sequence (Q9H6X2 33-321 limits assumed): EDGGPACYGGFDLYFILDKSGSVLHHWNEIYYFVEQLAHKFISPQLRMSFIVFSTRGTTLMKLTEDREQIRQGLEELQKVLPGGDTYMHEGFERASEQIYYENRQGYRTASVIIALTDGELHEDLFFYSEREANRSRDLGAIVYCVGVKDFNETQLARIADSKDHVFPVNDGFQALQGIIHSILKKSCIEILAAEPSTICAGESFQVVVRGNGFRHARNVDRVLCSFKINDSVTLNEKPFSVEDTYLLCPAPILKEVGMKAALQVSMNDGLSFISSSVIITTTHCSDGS
test-summary: phage supernatant ELISA on hTEM8-his
quantity-name: hTEM8-his ELISA (OD450)
Numbers only, in OD450.

The following binders have reported results that may help.
[
  {
    "binder": "phage clone 7E3 (scFv on phage) (scFv, V domains shown) VH: QVQLVESGGGLVNPGGSLRLSCAVSGFTSSGFSINWVRQAPGKGLEWVSSISGIGDSIFYADSVKGRFTISRDNAKNLVFLQMNSVKAEDTAVYYCVRDKWGWGTYSLFDYWGQGTLVTVSS VL: QAVLTQPPSASGTPGQRVTISCSGSSSNIASNVVSWYQQLPGTAPKVLIYSNNRRPSGVPDRFSGSKSGASASLAISGLQSDDETHYYCAAWDDSLKGPVFGGGTQLTVL",
    "quantity-name": "hTEM8-his ELISA (OD450)",
    "observed-measurement": 2.5
  },
  {
    "binder": "phage clone 3B3 (scFv on phage) (scFv, V domains shown) VH: EVQLVQSGGGLVKPGGSLRLSCAASGFTFSSYSMNWVRQAPGKGLEWVSSISSSSSYIYYADSVKGRFTISRDNAKNSLYLQMNSLRAEDTAVYYCARVRPPYGMDVWGQGTLVTVSS VL: NIQMTQSPSSVSASVGDTVTISCRASQGISNWLGWYQQRPGEAPKLLIYAASHLQSGVPSRFSGSGSGTDFVLTITSLQPEDFATYYCQQSNSFPLAFGGGTKLEIK",
    "quantity-name": "hTEM8-his ELISA (OD450)",
    "observed-measurement": 2.86
  },
  {
    "binder": "phage clone 11B7 (scFv on phage) (scFv, V domains shown) VH: QVQLVQSGGGVVQPGRPLRLSCAASGFNLGSYAMSWVRQAPGKGLEWVSAISGSGGSTYYADSVKGRFTISRDNSKNTLYLQMNSLRAEDTAVYYCAKILGPGNLNYYYYYGMDVWGQGTTVTVSS VL: SSELTQDPAVSVALGQTVRITCQGDSLRNSYASWYQQKPGQAPVLVIYGNNNRPSGIPDRVSGSRSGNTASLTITGAQAEDEADYYCNSRDSSGNHVVFGGGTELTVL",
    "quantity-name": "hTEM8-his ELISA (OD450)",
    "observed-measurement": 2.43
  }
]

Next binder, hTEM8-his ELISA (OD450) to be filled in.
Prompt: Need hTEM8-his ELISA (OD450) of phage clone 6A6 (scFv on phage) (scFv, V domains shown) VH: EVQLVESGGGVVQPGGSLRLSCAASGFTFDDYAMHWVRQAPGKGLEWVSLISGDGGSTYYADSVKGRFTISRDNSKNSLYLQMNSLKASDTAMYYCARPRWGRYSSSWPFDYWGQGTLVTVSS VL: QSALTQPASVSGSPGQSITISCTGTSSDVGTYNYVSWYQQHPGKAPKLMIYDVTDRPSGISNRFSGSKSGNTASLTISGLQAEDEGNYYCSSYTSNRSWVFGGGTKLTVL , thanks.
Response: 2.67
